System: Ipomoea hederacea (IPOHE)
assay_details: Post-emergence efficacy, glasshouse, evaluated after 13 days
Format: in vivo
study_conditions: Ipomoea hederacea, 312 h; post-emergence application, 500 g/Ha, evaluated after 13 days; read-out: Control of weed species IPOHE (100=total damage to plant; 0=no damage to plant)

compound	pest or weed control at 500 g/ha
O=C(O)CC[n+]1ccc(C(=O)NCc2nccs2)cn1 [Compound A146]	20%
O=C(O)CC[n+]1ccc(C(=O)NCc2ccccc2)cn1 [Compound A21]	60%
COCCNC(=O)c1cc[n+](CCC(=O)O)nc1 [Compound A40]	60%
CCNC(=O)c1cc[n+](CC[C@H](N)C(=O)O)nc1 [Compound A91]	30%
CC(C)CNC(=O)c1cc[n+](CCS(=O)(=O)[O-])nc1 [Compound A37]	50%

---

Test system: Setaria faberi (SETFA)
assay_details: Post-emergence efficacy, glasshouse, evaluated after 13 days
Format: in vivo
study_conditions: Setaria faberi, 312 h; post-emergence application, 500 g/Ha, evaluated after 13 days; read-out: Control of weed species SETFA (100=total damage to plant; 0=no damage to plant)
reported_metric: pest or weed control at 500 g/ha (%)

query_smiles	units_text	observed
N#Cc1ccc(CNC(=O)c2cc[n+](CCC(=O)O)nc2)cc1	%	30
N#CCCNC(=O)c1cc[n+](CCC(=O)O)nc1	%	100
CCNC(=O)c1cc[n+](CCOS(=O)(=O)[O-])nc1	%	80
O=C(O)CC[n+]1ccc(C(=O)NC2CCCCC2)cn1	%	30
C=CCNC(=O)c1cc[n+](CCNS(=O)(=O)[O-])nc1	%	90
O=C(NCc1ccc(F)cc1)c1cc[n+](CCS(=O)(=O)[O-])nc1	%	70
O=C(O)CC[n+]1ccc(C(=O)NCc2ccc(F)cc2)cn1	%	50
COCCNC(=O)c1cc[n+](CCC(=O)O)nc1	%	100
CC1(C)CC(NC(=O)c2cc[n+](CCC(=O)O)nc2)=NO1	%	30
O=C(O)CC[n+]1ccc(C(=O)NC2CSC2)cn1	%	100

---

Listed below: pest or weed control at 500 g/ha values for each entry.
Tested on: Lolium perenne (LOLPE)
assay_details: Post-emergence efficacy, glasshouse, evaluated after 13 days
Type: in vivo
study_conditions: Lolium perenne, 312 h; post-emergence application, 500 g/Ha, evaluated after 13 days; read-out: Control of weed species LOLPE (100=total damage to plant; 0=no damage to plant)

compound	pest or weed control at 500 g/ha, %
CC(O)CNC(=O)c1cc[n+](CCC(=O)O)nc1 (stereo not shown) [Compound A128]	80
CCNC(=O)c1cc[n+](CCNS(=O)(=O)[O-])nc1 [Compound A81]	90
O=C(O)CC[n+]1ccc(C(=O)NC2(C(F)(F)F)CC2)cn1 [Compound A94]	80
O=C(O)CC[n+]1ccc(C(=O)NC2CCCCC2)cn1 [Compound A59]	20
COC(=O)CC[n+]1ccc(C(=O)N(C)C)cn1 [Compound A2]	20
CC(=O)CNC(=O)c1cc[n+](CCC(=O)O)nc1 [Compound A129]	70
CNC(=O)c1cn[n+](CCS(=O)(=O)[O-])cc1-c1ccccc1 [Compound A39]	10
CCCCNC(=O)c1cc[n+](CCC(=O)O)nc1 [Compound A45]	60
CN(C(=O)c1cc[n+](CCS(=O)(=O)O)nc1)c1ccccc1 [Compound A8]	0
CC(=O)NNC(=O)c1cc[n+](CCC(=O)O)nc1 [Compound A105]	10

---

System: Echinochloa crus-galli (ECHCG)
assay_details: Post-emergence efficacy, glasshouse, evaluated after 13 days
Assay type: in vivo
study_conditions: Echinochloa crus-galli, 312 h; post-emergence application, 500 g/Ha, evaluated after 13 days; read-out: Control of weed species ECHCG (100=total damage to plant; 0=no damage to plant)
Listed below: pest or weed control at 500 g/ha values for each entry.

molecule	pest or weed control at 500 g/ha, %
CC1(NC(=O)c2cc[n+](CCC(=O)O)nc2)CC1 [Compound A92]	80
O=C(NCc1ccccc1)c1cc[n+](CCS(=O)(=O)[O-])nc1 [Compound A20]	60
CC(=O)CCNC(=O)c1cc[n+](CCC(=O)O)nc1 [Compound A130]	50
CC1(NC(=O)c2cc[n+](CCNS(=O)(=O)[O-])nc2)CC1 [Compound A99]	60
CCC1(NC(=O)c2cc[n+](CCC(=O)O)nc2)CC1 [Compound A134]	100
O=C(O)CC[n+]1ccc(C(=O)Nc2nccs2)cn1 [Compound A102]	0
CCS(=O)(=O)CCNC(=O)c1cc[n+](CCC(=O)O)nc1 [Compound A118]	40

---

Test system: Digitaria sanguinalis (DIGSA)
assay_details: Post-emergence efficacy, glasshouse, evaluated after 13 days
Format: in vivo
study_conditions: Digitaria sanguinalis, 312 h; post-emergence application, 500 g/Ha, evaluated after 13 days; read-out: Control of weed species DIGSA (100=total damage to plant; 0=no damage to plant)
reported_metric: pest or weed control at 500 g/ha (%)

compound	observed
CC1(NC(=O)c2cc[n+](CCNS(=O)(=O)[O-])nc2)CC1 [Compound A99]	100
O=C(O)CC[n+]1ccc(C(=O)NCc2nccs2)cn1 [Compound A146]	100
CC(C)(CO)NC(=O)c1cc[n+](CCC(=O)O)nc1 [Compound A100]	70
CCNC(=O)c1cc[n+](CCS(=O)(=O)[O-])nc1 [Compound A48]	90
Cn1cnc(CNC(=O)c2cc[n+](CCC(=O)O)nc2)n1 [Compound A147]	100
O=C(NCc1ccccc1)c1cc[n+](CCS(=O)(=O)[O-])nc1 [Compound A20]	60
COC(=O)CC[n+]1ccc(C(=O)N(C)C)cn1 [Compound A2]	50
N#CCCNC(=O)c1cc[n+](CCC(=O)O)nc1 [Compound A113]	100
CC(C)N(C)C(=O)c1cc[n+](CCS(=O)(=O)O)nc1 [Compound A9]	50
O=C(O)CC[n+]1ccc(C(=O)Nc2ccccc2)cn1 [Compound A33]	60

---

System: Lolium perenne (LOLPE)
assay_details: Post-emergence efficacy, glasshouse, evaluated after 13 days
Assay type: in vivo
study_conditions: Lolium perenne, 312 h; post-emergence application, 500 g/Ha, evaluated after 13 days; read-out: Control of weed species LOLPE (100=total damage to plant; 0=no damage to plant)

query_smiles	pest or weed control at 500 g/ha [%]
O=C(NCCO)c1cc[n+](CCS(=O)(=O)[O-])nc1	60
Cn1nccc1NC(=O)c1cc[n+](CCC(=O)O)nc1	10
CC(C)N(C(=O)c1cc[n+](CCC(=O)O)nc1)C(C)C	10
O=C(O)CC[n+]1ccc(C(=O)Nc2ccon2)cn1	10
COC(=O)CC[n+]1ccc(C(=O)Nc2nccs2)cn1	10

---

Test system: Setaria faberi (SETFA)
assay_details: Post-emergence efficacy, glasshouse, evaluated after 13 days
Type: in vivo
study_conditions: Setaria faberi, 312 h; post-emergence application, 500 g/Ha, evaluated after 13 days; read-out: Control of weed species SETFA (100=total damage to plant; 0=no damage to plant)

compound	pest or weed control at 500 g/ha
C=CCNC(=O)c1cc[n+](CCS(=O)(=O)[O-])nc1	50%
CCNC(=O)c1cc[n+](CCC(=O)O)nc1	100%
C#CC(C)NC(=O)c1cc[n+](CCC(=O)O)nc1 (stereo not drawn)	100%
O=C(O)CC[n+]1ccc(C(=O)NCc2ccccn2)cn1	70%
CC(C)CNC(=O)c1cc[n+](CCC(=O)O)nc1	90%
CCCNC(=O)c1cc[n+](CCC(=O)O)nc1	100%
COCCNC(=O)c1cc[n+](CCS(=O)(=O)[O-])nc1	80%
CC1(NC(=O)c2cc[n+](CCC(=O)O)nc2)CC1	100%
CC(C)N(C)C(=O)c1cc[n+](CCC(=O)O)nc1	70%
CCNC(=O)c1cc[n+](CCCS(=O)(=O)[O-])nc1	30%
CN(C(=O)c1cc[n+](CCS(=O)(=O)O)nc1)c1ccccc1	20%
CNS(=O)(=O)CCNC(=O)c1cc[n+](CCC(=O)O)nc1	100%
CNC(=O)c1cc[n+](CCC(=O)O)nc1-c1ccccc1	40%
O=C(O)CC[n+]1ccc(C(=O)N2CCCC2)cn1	100%
CC(C)NC(=O)c1cc[n+](CCC(=O)[O-])nc1	90%
C#CC(C)(C)NC(=O)c1cc[n+](CCC(=O)O)nc1	100%
CC(O)CNC(=O)c1cc[n+](CCC(=O)O)nc1 (stereo not drawn)	90%
CC(=O)CNC(=O)c1cc[n+](CCC(=O)O)nc1	100%
CCS(=O)(=O)CCNC(=O)c1cc[n+](CCC(=O)O)nc1	90%
O=C(O)CC[n+]1ccc(C(=O)NCc2nccs2)cn1	90%
C#CCNC(=O)c1cc[n+](CCNS(=O)(=O)[O-])nc1	40%
CN(CC#N)C(=O)c1cc[n+](CCC(=O)O)nc1	60%
COCCNC(=O)c1cc[n+](CCCOS(=O)(=O)[O-])nc1	80%
C[S+]([O-])CCNC(=O)c1cc[n+](CCC(=O)O)nc1 (stereo not drawn)	100%
CC(CC(=O)O)[n+]1ccc(C(=O)NC2(C#N)CC2)cn1 (stereo not drawn)	70%
O=C(c1cc[n+](CCS(=O)(=O)[O-])nc1)N1CCCCC1	40%
CN(C)C(=O)c1cc[n+](CCC(=O)O)nc1	90%
